# targetOfAssay: acetylcholine receptor
# methodSummary: SPR, AchR immobilised on CM5 chip, peptide 10 uM
measuredProperty: Binding affinity (RU)

Sample answers from the record:
- binder: "RRCCAR [6mer-1-970]"
  measuredProperty: "Binding affinity (RU)"
  readoutNumber: 38
- binder: "KEPIRK [6mer-2-604]"
  measuredProperty: "Binding affinity (RU)"
  readoutNumber: 16
- binder: "RPPDRR [6mer-2-619]"
  measuredProperty: "Binding affinity (RU)"
  readoutNumber: 26
- binder: "KKIWFR [6mer-1-959]"
  measuredProperty: "Binding affinity (RU)"
  readoutNumber: 36
- binder: "KKPTFR [6mer-1-997]"
  measuredProperty: "Binding affinity (RU)"
  readoutNumber: 35

P = RKKPEK [6mer-1-1011]
Q = RFPWRK [6mer-2-776]
Ask: Which of the two gives a bigger number for Binding affinity (RU): P or Q ? Response format: the label of the selected entry.
Reply: P
(P: 35 RU, Q: 12 RU)

Provenance of the data: patent US20250011363A1
